Target: T1, human Dectin-1 (biosensor tests of Tables 3, 4A and 9; construct not stated) (human, UniProt Q9BXN2 66-247, limits assumed)
T1 construct: also called hDectin-1
T1 sequence (looked up): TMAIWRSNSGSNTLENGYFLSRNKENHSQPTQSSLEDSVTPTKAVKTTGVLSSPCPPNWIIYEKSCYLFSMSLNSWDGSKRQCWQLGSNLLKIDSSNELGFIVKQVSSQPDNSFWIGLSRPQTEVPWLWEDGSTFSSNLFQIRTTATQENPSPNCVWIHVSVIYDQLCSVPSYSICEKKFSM
Assay: Octet response; further: time not given here
MEASURED_ENDPOINT: X = 470

1) 2M24A.1.4 hFab (Fab, V domains shown, Fab; also called 2M24.1.4) VH: QVQLVQSGAEVKKPGASVKVSCKSSGYTFTDYYIHWVRQAPGQGLEWMGWINPNSGDTNYAQKFQGRITMTRDTSISTAYLELSRLRSDDTAVFYCARNSGSASFGYWGQGTLVTVSS VL: DIQMTQSPSSVSASVGDRVTITCRASQGISSWLAWYQQKPGKAPKLLIFGASSLQSGVPSRFSGSGSGTDFTLTVSSLQPEDFATYYCQQAASFPFTFGPGTKVDIE :: 0

--- query ---
Lookup result for 2M24A.1.14 hFab (Fab, V domains shown, Fab; also called 2M24.1.14) VH: QVQLVQSGAEVKKPGASVKVSCKSSGYTFTDYYIHWVRQAPGQGLEWMGWINPNSGDTNYAQKFQGRITMTRDTSISTAYLELSRLRSDDTAVFYCARNSGSASFGYWGQGTLVTVSS VL: DIQMTQSPSSVSASVGDRVTITCRASQGISSWLAWYQQKPGKAPKLLIFGASSLQSGVPSRFSGSGSGTDFTLTVSSLQPEDFATYYCQQAYSFPFTFGPGTKVDIE ; measured X = 470: 0

Attribution: patent US20250230247A1
